systemName: human CD33 P132A (human, UniProt P20138 18-364)
Sequence (P20138 18-364 P132A limits assumed): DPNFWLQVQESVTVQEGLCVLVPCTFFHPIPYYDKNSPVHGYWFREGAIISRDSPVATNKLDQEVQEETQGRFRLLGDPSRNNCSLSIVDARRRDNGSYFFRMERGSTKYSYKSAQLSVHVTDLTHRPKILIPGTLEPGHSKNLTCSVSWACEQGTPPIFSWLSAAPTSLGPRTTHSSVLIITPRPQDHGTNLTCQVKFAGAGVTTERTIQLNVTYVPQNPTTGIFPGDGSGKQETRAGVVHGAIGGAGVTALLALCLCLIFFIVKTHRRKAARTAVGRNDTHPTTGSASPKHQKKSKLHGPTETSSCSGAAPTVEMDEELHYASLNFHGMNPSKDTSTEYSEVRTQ
testMethodNotes: flow cytometry on HEK293-T, alanine scan

- binder: "Refmab #4 (antibody, V domains shown, The alanine scan used IgG or Fab) VH: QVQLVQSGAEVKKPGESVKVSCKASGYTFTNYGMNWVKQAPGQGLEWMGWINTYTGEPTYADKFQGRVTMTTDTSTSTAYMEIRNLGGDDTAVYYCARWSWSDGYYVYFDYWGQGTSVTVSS VL: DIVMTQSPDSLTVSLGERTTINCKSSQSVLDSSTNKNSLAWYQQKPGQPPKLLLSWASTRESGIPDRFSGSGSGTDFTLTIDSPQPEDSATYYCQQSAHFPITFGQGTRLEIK"
  Mean % WT Binding: "70.1 % WT binding"
- binder: "Refmab #2 (antibody, V domains shown, The alanine scan used IgG or Fab) VH: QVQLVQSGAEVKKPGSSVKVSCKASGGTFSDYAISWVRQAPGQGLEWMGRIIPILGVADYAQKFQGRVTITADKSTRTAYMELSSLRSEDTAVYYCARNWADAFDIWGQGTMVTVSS VL: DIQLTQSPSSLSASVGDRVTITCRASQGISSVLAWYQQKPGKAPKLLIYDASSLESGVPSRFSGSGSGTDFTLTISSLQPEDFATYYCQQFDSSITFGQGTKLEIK"
  Mean % WT Binding: "102 % WT binding"
- binder: "Refmab #3 (antibody, V domains shown, The alanine scan used IgG or Fab) VH: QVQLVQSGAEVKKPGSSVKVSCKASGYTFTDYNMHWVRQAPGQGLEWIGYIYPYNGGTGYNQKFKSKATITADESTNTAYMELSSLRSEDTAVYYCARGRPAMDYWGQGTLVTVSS VL: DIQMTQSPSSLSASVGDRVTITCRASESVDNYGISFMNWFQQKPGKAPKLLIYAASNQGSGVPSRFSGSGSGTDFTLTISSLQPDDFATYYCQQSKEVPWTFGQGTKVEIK"
  Mean % WT Binding: "74.5 % WT binding"
